Hey, just so you know, these numbers are from patent US20250368745A1.

Reported values of pKd for individual entries
SYSTEM: T1, human IL-18BP (human, UniProt O95998 31-194)
T1 construct: also called hIL-18BP; Mature Human Isoform A
T1 sequence: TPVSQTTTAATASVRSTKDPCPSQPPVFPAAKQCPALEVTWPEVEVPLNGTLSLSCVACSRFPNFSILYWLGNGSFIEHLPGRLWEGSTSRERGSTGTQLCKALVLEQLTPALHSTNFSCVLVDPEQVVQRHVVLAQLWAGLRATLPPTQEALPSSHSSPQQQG
ASSAY METHOD TEXT: BLI, apparent KD, one conc.
pKd: −log10 of the molar value.
PROPERTY LABEL: pKd

INSERT INTO results (binder, quantitative_result) VALUES
  ('SA301a light chain variant S27M (antibody, V domains shown) VH: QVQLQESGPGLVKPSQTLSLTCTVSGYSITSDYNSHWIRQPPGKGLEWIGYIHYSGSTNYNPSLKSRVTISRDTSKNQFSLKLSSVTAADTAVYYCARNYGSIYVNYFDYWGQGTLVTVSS VL: EIVLTQSPATLSLSPGERATLSCSASMSVSYMYWYQQKPGQAPRPLIYRTSNLASGIPARFSGSGSGTDFTLTISSLEPEDFAVYYCQQYHSYPTFGGGTKVEIK', 9.20),
  ('SA301a light chain variant S27L (antibody, V domains shown) VH: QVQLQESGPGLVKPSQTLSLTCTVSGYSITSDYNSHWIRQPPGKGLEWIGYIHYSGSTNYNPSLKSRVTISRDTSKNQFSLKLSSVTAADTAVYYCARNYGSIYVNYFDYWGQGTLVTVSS VL: EIVLTQSPATLSLSPGERATLSCSASLSVSYMYWYQQKPGQAPRPLIYRTSNLASGIPARFSGSGSGTDFTLTISSLEPEDFAVYYCQQYHSYPTFGGGTKVEIK', 9.36),
  ('SA301a light chain variant S28T (antibody, V domains shown) VH: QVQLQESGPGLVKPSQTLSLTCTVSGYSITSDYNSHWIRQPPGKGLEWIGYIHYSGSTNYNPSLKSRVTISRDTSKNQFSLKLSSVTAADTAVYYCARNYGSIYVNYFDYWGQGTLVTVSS VL: EIVLTQSPATLSLSPGERATLSCSASSTVSYMYWYQQKPGQAPRPLIYRTSNLASGIPARFSGSGSGTDFTLTISSLEPEDFAVYYCQQYHSYPTFGGGTKVEIK', 9.37);
